condition.parameters: 333.15 K; 101.33 kPa; Liquid; Vibrating tube method
value.kind: mass density (kg/m3)
Numbers only, in kg/m3.

The examples below pair each entry with its known result.
# molecule, unit.info, mass density
measured = [
    ("CC(=O)N(C)C [N,N-dimethylethanamide]", "kg/m3", 903.68),
    ("CN(C)C=O [dimethylformamide]", "kg/m3", 910.17),
    ("CCC(=O)[NH+](C)C.O=S(=O)([N-]S(=O)(=O)C(F)(F)F)C(F)(F)F", "kg/m3", 1484.21),
    ("CC(=O)[NH+](C)C.O=S(=O)([N-]S(=O)(=O)C(F)(F)F)C(F)(F)F [N,N-dimethylacetamidium bis(trifluoromethanesulfonyl)amide]", "kg/m3", 1529.1),
]

Let us move to another entry and its mass density.
Returns the measured mass density for the input molecule. Input: CCC(=O)N(C)C [N,N-dimethylpropionamide]
889.17

These entries and their values trace back to the NIST ThermoML archive (doi:10.1021/acs.jced.6b00575).
